biological target: T1, M4; experiment: scFv-phage ELISA
T1 construct: also called PD1 mutant M4

binder: PD1-49B9 (antibody, V domains shown, scFv-phage in the screening ELISA; later whole IgG) VH: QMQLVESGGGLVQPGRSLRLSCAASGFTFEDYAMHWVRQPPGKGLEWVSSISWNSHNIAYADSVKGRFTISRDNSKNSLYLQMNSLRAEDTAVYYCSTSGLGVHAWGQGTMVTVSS VL: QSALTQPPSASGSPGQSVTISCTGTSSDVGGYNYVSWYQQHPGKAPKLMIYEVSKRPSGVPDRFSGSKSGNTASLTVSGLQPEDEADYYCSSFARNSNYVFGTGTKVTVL
OD490: 3.8
//
binder: PD1-29H3 (antibody, V domains shown, scFv-phage in the screening ELISA; later whole IgG) VH: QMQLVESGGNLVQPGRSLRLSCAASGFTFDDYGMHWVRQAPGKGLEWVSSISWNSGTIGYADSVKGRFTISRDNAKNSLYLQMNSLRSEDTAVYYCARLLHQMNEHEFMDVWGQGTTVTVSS VL: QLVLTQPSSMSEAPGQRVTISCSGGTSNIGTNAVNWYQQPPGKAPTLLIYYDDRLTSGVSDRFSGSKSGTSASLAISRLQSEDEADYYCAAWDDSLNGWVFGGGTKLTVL
OD490: 3.3
